- Test system: Bacillus subtilis
- Method notes: Antimicrobial activity against Bacillus subtilis MTCC 1789 at 25 ug/ml
- Assay type: functional
- Experimental setup: read-out: IZ
I'd appreciate it if you could supply zone of inhibition at 25 µg/mL values for the items below.
Unit mm implied. Number only.

Request: Suppose we examine the molecule COc1ccccc1NCC(=O)Oc1ccc2c(C)cc(=O)oc2c1 ; what zone of inhibition at 25 µg/mL value has been reported?
Response: 11.4

Request: Request the reported zone of inhibition at 25 µg/mL associated with Cc1cc(=O)oc2cc(OC(=O)CNc3cccc([N+](=O)[O-])c3)ccc12
Response: 11.2

Request: Please give the measured zone of inhibition at 25 µg/mL for this molecule: COc1ccc(NCC(=O)Oc2ccc3c(C)cc(=O)oc3c2)cc1
Response: 13.3

Request: Consider the molecule Cc1cc(=O)oc2cc(OC(=O)CNc3ccccc3[N+](=O)[O-])ccc12 and give its measured zone of inhibition at 25 µg/mL.
Response: 12.4

Request: Item under review: Cc1cc(=O)oc2cc(OC(=O)CNc3ccccc3)ccc12 . Reported zone of inhibition at 25 µg/mL?
Response: 11.8

Request: Returns the measured zone of inhibition at 25 µg/mL for the input molecule. Input: Cc1cc(=O)oc2cc(OC(=O)CNc3nccs3)ccc12
Response: 14.4

Request: Fill in: zone of inhibition at 25 µg/mL of Cc1cccc(NCC(=O)Oc2ccc3c(C)cc(=O)oc3c2)c1 is ___
Response: 12.4

Request: What does the record list as zone of inhibition at 25 µg/mL for Cc1cc(=O)oc2cc(OC(=O)CNN3C=NNC3)ccc12 ?
Response: 14.3

Request: What value of zone of inhibition at 25 µg/mL has been recorded for this entry: CN[C@H](CC(C)C)C(=O)N[C@H]1C(=O)N[C@@H](CC(N)=O)C(=O)N[C@H]2C(=O)N[C@H]3C(=O)N[C@H](C(=O)N[C@H](C(=O)O)c4cc(O)cc(O)c4-c4cc3ccc4O)[C@H](O)c3ccc(c(Cl)c3)Oc3cc2cc(c3O[C@@H]2O[C@H](CO)[C@@H](O)[C@H](O)[C@H]2O[C@H]2C[C@](C)(N)[C@H](O)[C@H](C)O2)Oc2ccc(cc2Cl)[C@H]1O
Response: 18.2

Request: # query: zone of inhibition at 25 µg/mL of entry Cc1cc(=O)oc2cc(OC(=O)CNc3ccc([N+](=O)[O-])cc3)ccc12
Response: 12.1

---

- Test system: Escherichia coli
- Method notes: Antimicrobial activity against Escherichia coli MTCC 4315 at 50 ug/ml
- Type: functional
- Experimental setup: read-out: IZ
Property name: zone of inhibition at 50 µg/mL (mm)
Value expressed in mm; do not type the unit.

Request: Item under review: Cc1cc(=O)oc2cc(OC(=O)CNN3C=NNC3)ccc12 . Reported zone of inhibition at 50 µg/mL?
Response: 16.2

Request: Item under review: Cc1cc(=O)oc2cc(OC(=O)CNc3nc4ccccc4s3)ccc12 . Reported zone of inhibition at 50 µg/mL?
Response: 14.5

Request: Fill in: zone of inhibition at 50 µg/mL of Cc1cc(=O)oc2cc(OC(=O)CNc3nccs3)ccc12 is ___
Response: 18.4

Request: Dear colleague, I am looking for the recorded zone of inhibition at 50 µg/mL of the following compound: Cc1cccc(NCC(=O)Oc2ccc3c(C)cc(=O)oc3c2)c1
Response: 16.9

Request: Param item = Cc1cc(=O)oc2cc(OC(=O)CNc3ccc(Cl)cc3)ccc12 ; retrieve measured zone of inhibition at 50 µg/mL.
Response: 12.6
